Recorded values, source patent US20250177375A1.

List of cytotoxicity at 0.1 µM values.
system: NK92 cells; assay: Killing function of NK92 cells against tumor cells after compound treatment (LDH assay, initial screening); assay type: cell-based, Human; conditions: Homo sapiens; NK92 treated at 100 nM for 72 h; effector-to-target ratio 5:1, 5 h co-culture; LDH release; read-out: tumor killing rate by NK activation
Write down the numeric answer in % and omit the unit.

Answered examples (3):
> print(dat)
                           molecular.string                 readout  obs.value
1  CC[C@H](C)/C=C(C)/C=C/C1=CC2=C(Cl)C(=O)[C@](C)(OC(C)=O)C(=O)C2=CN1[C@@H](Cc1ccc(O)cc1)C(=O)O  cytotoxicity at 0.1 µM       29.5
2  CC[C@H](C)/C=C(C)/C=C/C1=CC2=C(Cl)C(=O)[C@](C)(OC(C)=O)C(=O)C2=CN1[C@H](C(=O)O)[C@@H](C)O  cytotoxicity at 0.1 µM       28.3
3  C/C=C(\C)C(=O)C1=C2C3=CN([C@@H](CCC(=O)OC)C(=O)OC)C(/C=C/[C@@H](C)CC)=CC3=C(Cl)C(=O)[C@@]2(C)OC1=O  cytotoxicity at 0.1 µM         22

Let us examine a further case.
Find the measured cytotoxicity at 0.1 µM of CC[C@H](C)/C=C(C)/C=C/C1=CC2=C(Cl)C(=O)[C@](C)(OC(C)=O)C(=O)C2=CO1 and report it.
38.3
